target_or_test_system: T1, full-length human GIPR with an N-terminal FLAG tag, overexpressed on HEK-293T cells (human, UniProt P48546 22-466)
T1 sequence (looked up): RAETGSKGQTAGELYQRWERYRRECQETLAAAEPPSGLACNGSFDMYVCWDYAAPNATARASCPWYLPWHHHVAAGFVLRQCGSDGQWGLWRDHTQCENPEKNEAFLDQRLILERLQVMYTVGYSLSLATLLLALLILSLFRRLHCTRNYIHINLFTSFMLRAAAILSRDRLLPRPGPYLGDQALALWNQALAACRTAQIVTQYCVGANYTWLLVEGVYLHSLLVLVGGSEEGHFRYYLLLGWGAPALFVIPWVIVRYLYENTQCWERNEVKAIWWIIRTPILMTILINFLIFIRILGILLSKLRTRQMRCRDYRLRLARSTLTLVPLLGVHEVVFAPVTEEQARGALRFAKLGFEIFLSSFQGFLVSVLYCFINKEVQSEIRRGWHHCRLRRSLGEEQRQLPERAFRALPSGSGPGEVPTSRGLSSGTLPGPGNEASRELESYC
method: cell-based or functional assay
Starred links: 1 amine or outer side, 2 acyl side, 3 side chain; linkers in the order of their positions; H or OH if unused. Non-standard residues stand in square brackets, D forms with d. Groups on a side chain read outwards from the residue. No end group written: not given here. *: point of attachment. C18 diacid = O=C(O)CCCCCCCCCCCCCCCCC(=O)*; γGlu = O=C(O)[C@H](CCC(=O)[*:2])N[*:1]; NMeY = CN[C@@H](Cc1ccc(O)cc1)C(=O)O; AEEA = NCCOCCOCC(=O)O; E∗ = not defined here; K∗ = not defined here; Aib = CC(C)(N)C(=O)O
# cutoff 0.3 pM applies to Human GIPR cAMP EC50, HEK293T; >= gives true, < gives false

Examples with answers:
{"columns": ["binder", "class_assignment"],
 "data": [
  ["YXEGTFISDYSIALDRXHQXNFVNELLKQXPSSGAPPPS (N-terminal Me (Me-Tyr 1); Aib at 2, 17, 20; E* at 25 and K* at 28 (mark * as printed, not explained); Km at 30 = Lys(2OEGgE-C18DA); C-terminus NH2) [Compound No. 185]", "true"],
  ["Me-Y[Aib]EGTFISDYSIALDR[Aib]HQQ[E∗]FV[K∗]WLLAQK([AEEA-AEEA-γGlu-C18 diacid])PSSGAPPPS-NH2 (not fully specified (residue 1); reading uncertain; also: E* at 21 and K* at 24 marked, meaning not given here) [Compound No. 181]", "true"],
  ["YXEGTFISDYSIAXDKAXQADFVEWLLAQRG (N-terminus H; Aib at 2, 14; Km at 18 = Lys(2OEGgE-C18DA); C-terminus OH) [Compound No. 165]", "false"]
]}

Here is another binder to look at.
q: Determine whether this binder has Human GIPR cAMP EC50, HEK293T no lower than 0.3 pM: [NMeY]GEGTFISDYSI[Aib]LDR[Aib]AQ[Aib]K([AEEA-AEEA-γGlu-γGlu-C18 diacid])FVNWLLAQRG-OH [Compound No. 205]
a: true
